molecular target: human PCSK9 (human, UniProt Q8NBP7 31-692, limits assumed); assay: cell-based or functional assay
Sequence (Q8NBP7 31-692 limits assumed): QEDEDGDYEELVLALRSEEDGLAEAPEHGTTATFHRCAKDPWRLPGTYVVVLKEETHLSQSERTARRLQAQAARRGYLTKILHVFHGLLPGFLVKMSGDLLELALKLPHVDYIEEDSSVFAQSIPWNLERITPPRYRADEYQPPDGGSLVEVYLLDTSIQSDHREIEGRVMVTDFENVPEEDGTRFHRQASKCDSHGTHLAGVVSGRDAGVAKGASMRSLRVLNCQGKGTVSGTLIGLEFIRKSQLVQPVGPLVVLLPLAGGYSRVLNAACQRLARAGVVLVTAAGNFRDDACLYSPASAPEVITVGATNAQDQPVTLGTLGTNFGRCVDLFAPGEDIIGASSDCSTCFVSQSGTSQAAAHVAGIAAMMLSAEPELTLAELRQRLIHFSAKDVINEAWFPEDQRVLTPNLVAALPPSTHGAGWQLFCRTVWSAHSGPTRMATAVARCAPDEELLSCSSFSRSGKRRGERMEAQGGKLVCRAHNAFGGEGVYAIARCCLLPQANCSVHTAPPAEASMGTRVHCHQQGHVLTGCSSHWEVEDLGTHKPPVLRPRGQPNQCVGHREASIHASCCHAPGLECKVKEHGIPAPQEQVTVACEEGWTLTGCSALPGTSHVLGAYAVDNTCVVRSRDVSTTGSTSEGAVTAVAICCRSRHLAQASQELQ
For each record, write down the corresponding IgG IC50 (nM), inhibition of PCSK9 on LDL uptake (Exopolar assay).
Kindly answer with a numeric value in nM, unit omitted.

What the record says about AX9 IgG1 (antibody, V domains shown) VH: EVQLLESGGGLVQPGGSLRLSCKASGYTFSSYWMHWVRQAPGKGLEWIGRIDPYNGGTKYNEKFKGKATISRDNSKNTLYLQMNSLRAEDTAVYYCARYGYYLGSYAMDYWGQGTLVTVSS VL: DIQMTQSPSSLSASVGDRVTITCRASQDVSKYLAWYQQKPGKAPKLLIYAASSLQSGVPSRFSGSGSGTDFTLTISSLQPEDFATYYCQVYDSSPNAYVFGGGTKVEIK : IgG IC50 (nM), inhibition of PCSK9 on LDL uptake (Exopolar assay) is 10.7

What the record says about AX188 IgG2 (antibody, V domains shown, IgG2) VH: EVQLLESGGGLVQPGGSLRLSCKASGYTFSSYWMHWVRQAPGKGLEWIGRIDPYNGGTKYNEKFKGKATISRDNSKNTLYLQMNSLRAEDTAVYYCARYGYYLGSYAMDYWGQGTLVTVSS VL: DIQMTQSPSSLSASVGDRVTITCRASQSVSRYLAWYQQKPGKAPKLLIYAASSLQSGVPSRFSGSGSGTDFTLTISSLQPEDFATYYCEAYDYSSGPWVFGGGTKVEIKR : IgG IC50 (nM), inhibition of PCSK9 on LDL uptake (Exopolar assay) is 24.8

What the record says about AX424 IgG2 (antibody, V domains shown, also called AX424 (55N to T)) VH: EVQLLESGGGLVQPGGSLRLSCKASGYTFSSYWMHWVRQAPGKGLEWIGRIDPYTGGTKYNEKFKGKATISRDNSKNTLYLQMNSLRAEDTAVYYCARYGYYLGSYAMDYWGQGTLVTVSS VL: DIQMTQSPSSLSASVGDRVTITCRASQDVSRYLTWYQQKPGKAPKLLIYAASSLQSGVPSRFSGSGSGTDFTLTISSLQPEDFATYYCQAYDYSLSGYVFGGGTKVEIKR : IgG IC50 (nM), inhibition of PCSK9 on LDL uptake (Exopolar assay) is 6

What the record says about AX422 IgG2 (antibody, V domains shown, also called AX422 (55N to S)) VH: EVQLLESGGGLVQPGGSLRLSCKASGYTFSSYWMHWVRQAPGKGLEWIGRIDPYSGGTKYNEKFKGKATISRDNSKNTLYLQMNSLRAEDTAVYYCARYGYYLGSYAMDYWGQGTLVTVSS VL: DIQMTQSPSSLSASVGDRVTITCRASQDVSRYLTWYQQKPGKAPKLLIYAASSLQSGVPSRFSGSGSGTDFTLTISSLQPEDFATYYCQAYDYSLSGYVFGGGTKVEIKR : IgG IC50 (nM), inhibition of PCSK9 on LDL uptake (Exopolar assay) is 5

What the record says about AX1DG IgG2 (antibody, V domains shown, IgG2; also called AXIDG) VH: EVQLLESGGGLVQPGGSLRLSCKASGFTFTSYYMHWVRQAPGKGLEWIGRINPDSGSTKYNEKFKGRATISRDNSKNTLYLQMNSLRAEDTAVYYCARGGRLSWDFDVWGQGTLVTVSS VL: DIQMTQSPSSLSASVGDRVTITCRASQDISRYLAWYQQKPGKAPKLLIYAASSLQSGVPSRFSGSGSGTDFTLTISSLQPEDFATYYCAAYDYSLGGYVFGGGTKVEIK : IgG IC50 (nM), inhibition of PCSK9 on LDL uptake (Exopolar assay) is 7.4
